Reference source for all entries: patent US8367838B2

# tested_system: mGlyT-1b (Mus musculus)
# Construct: host or cells: Flp-in-CHO
# assay_summary: Glycine uptake inhibition assay (mGlyT-1b), [3H]-glycine uptake in transfected Flp-in-CHO cells
# Assay type: cell-based
# experimental_context: Flp-in-CHO cells transfected with mGlyT-1b cDNA; [3H]-glycine 60 nM and 25 μM non-radioactive glycine; 20 min preincubation at 22° C.; read-out: IC50 (μM) at GlyT-1; Ic50 (hglyt1b)
Structures can show the parent of a compound that is named as a salt.
Each record is given y if its reported IC50 is strictly below 0.4 µM. Records at or above 0.4 µM are given n.

compound: N[C@@H](c1ccc(Cl)c(Cl)c1)[C@H](O)c1ccc(OCC2CC2)cc1 (racemic)
classification: n
//
compound: Cc1ccc([C@H](N)[C@H](O)c2ccc(OC(C)C)cc2)cc1Cl (racemic)
classification: y
//
compound: CO[C@H](c1ccc(-c2cccnc2)cc1)[C@@H](N)c1ccc(Cl)c(Cl)c1 (racemic) [Example 98, dihydrochloride]
classification: y
//
compound: N[C@@H](c1ccc(Cl)c(Cl)c1)[C@H](O)c1ccc(-c2cncc(F)c2)cc1 (racemic) [Example 83]
classification: y
//
compound: N[C@@H](c1ccc(Cl)cc1)[C@H](O)c1ccc(OC2CCCCC2)cc1 (racemic)
classification: n
//
compound: Cc1cc(-c2cncc(F)c2)ccc1[C@@H](O)[C@@H](N)c1ccc(Cl)c(Cl)c1 (racemic) [Example 2, dihydrochloride]
classification: y

* * *

# tested_system: mGlyT-1b (Mus musculus, UniProt P28571)
# Construct: host or cells: Flp-in-CHO
# Sequence (P28571 1-651 isoform P28571-2): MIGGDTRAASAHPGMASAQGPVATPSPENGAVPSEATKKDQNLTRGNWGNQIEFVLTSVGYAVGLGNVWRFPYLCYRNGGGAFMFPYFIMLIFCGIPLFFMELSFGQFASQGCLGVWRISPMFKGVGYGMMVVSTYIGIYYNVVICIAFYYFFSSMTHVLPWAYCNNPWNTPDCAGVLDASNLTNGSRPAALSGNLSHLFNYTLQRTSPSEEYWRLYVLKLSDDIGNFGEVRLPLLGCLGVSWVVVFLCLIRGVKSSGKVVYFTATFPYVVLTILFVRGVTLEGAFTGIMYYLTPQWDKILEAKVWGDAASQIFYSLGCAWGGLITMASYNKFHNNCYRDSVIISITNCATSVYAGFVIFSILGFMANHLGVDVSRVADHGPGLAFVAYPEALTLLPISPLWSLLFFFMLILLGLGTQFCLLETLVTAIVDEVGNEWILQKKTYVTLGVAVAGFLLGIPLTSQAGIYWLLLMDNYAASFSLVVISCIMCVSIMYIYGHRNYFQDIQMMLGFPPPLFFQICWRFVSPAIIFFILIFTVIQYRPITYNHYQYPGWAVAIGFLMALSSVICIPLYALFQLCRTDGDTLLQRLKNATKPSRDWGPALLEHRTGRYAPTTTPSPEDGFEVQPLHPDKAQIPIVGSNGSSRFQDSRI
# assay_summary: Glycine uptake inhibition assay (mGlyT-1b), [3H]-glycine uptake in transfected Flp-in-CHO cells
# Type: cell-based
# experimental_context: Flp-in-CHO cells transfected with mGlyT-1b cDNA; [3H]-glycine 60 nM and 25 μM non-radioactive glycine; 20 min preincubation at 22° C.; read-out: IC50 (μM) at GlyT-1; Ic50 (hglyt1b)
Counter-ions that a name gives are not always drawn.
Each record is given Met if its reported IC50 is strictly below 0.2 µM. Records at or above 0.2 µM are given Not met.

compound: N[C@@H](c1ccc(Cl)c(Cl)c1)[C@H](O)c1ccc(OC2CCOC2)cc1F (mixture of isomers) [Example 16, hydrochloride]
classification: Met
--
compound: Cc1cc([C@@H](O)[C@@H](N)c2ccc(Cl)c(Cl)c2)cnc1OC1CCOC1 (mixture of isomers) [Example 31, dihydrochloride]
classification: Not met
--
compound: N[C@@H](c1ccc(C(F)(F)F)cc1)[C@H](O)c1ccc(-c2cccnc2)cc1 (racemic)
classification: Not met
--
compound: N[C@@H](c1ccc(Cl)c(Cl)c1)[C@H](O)c1ccc(OCC(F)(F)F)cc1 (racemic)
classification: Not met
--
compound: COc1cccc(-c2ccc([C@@H](O)[C@@H](N)c3ccc(Cl)cc3)cc2)c1 (racemic)
classification: Not met
--
compound: N[C@@H](c1ccc(Cl)c(Cl)c1)[C@H](O)c1ccc(-c2cccnc2)cc1 (racemic)
classification: Met
--
compound: N[C@@H](c1ccc(Cl)c(Cl)c1)[C@H](O)c1ccc(OC(F)(F)C(F)F)cc1 (racemic)
classification: Met
--
compound: CC(Oc1ccc([C@@H](O)[C@@H](N)c2ccc(Cl)cc2)cc1)C(F)(F)F (mixture of isomers)
classification: Not met
--
compound: Cc1cc(OC(C)C)ncc1[C@@H](O)[C@@H](N)c1ccc(Cl)c(Cl)c1 (racemic) [Example 30, dihydrochloride]
classification: Not met
--
compound: N[C@@H](c1ccc(Cl)cc1)[C@H](O)c1ccc(OC2CCCOC2)cc1 (mixture of isomers)
classification: Met
--
compound: N[C@@H](c1ccc(C(F)(F)F)c(F)c1)[C@H](O)c1ccc(-c2cncc(F)c2)cc1 (racemic)
classification: Not met
--
compound: N[C@@H](c1ccc(Cl)cc1)[C@H](O)c1ccc(OC2CCCC2)cc1 (racemic) [Example 48, hydrochloride]
classification: Not met
--
compound: COc1cncc(-c2ccc([C@@H](O)[C@@H](N)c3ccc(Cl)cc3)cc2)c1 (racemic)
classification: Met
--
compound: N[C@@H](c1ccc(Cl)c(Cl)c1)[C@H](O)c1ccc(OC2CCOC2)nc1 (mixture of isomers) [Example 19, dihydrochloride]
classification: Met
--
compound: N[C@@H](c1ccc(Cl)c(Cl)c1)[C@H](O)c1ccc(OCC2CCCO2)cc1F (mixture of isomers) [Example 28, hydrochloride salt]
classification: Not met
--
compound: N[C@@H](c1ccc(Cl)cc1)[C@H](O)c1ccc(OC(CF)CF)cc1 (racemic)
classification: Not met
--
compound: Cc1nc(C)c(-c2ccc([C@@H](O)[C@@H](N)c3ccc(Cl)cc3)cc2)s1 (racemic)
classification: Not met
--
compound: N[C@@H](c1ccc(Cl)c(Cl)c1)[C@H](O)c1ccc(OCC(O)CCCl)cc1F (mixture of isomers) [Example 29, hydrochloride]
classification: Not met
--
compound: Cc1nc(OC(C)C)ccc1[C@@H](O)[C@@H](N)c1ccc(Cl)c(Cl)c1 (racemic) [Example 27, dihydrochloride]
classification: Not met
--
compound: Cc1nc(OC2CCOC2)ccc1[C@@H](O)[C@@H](N)c1ccc(Cl)c(Cl)c1 (mixture of isomers) [Example 15, dihydrochloride]
classification: Met
--
compound: CC(C)COc1ccc([C@@H](O)[C@@H](N)c2ccc(Cl)c(Cl)c2)cc1 (racemic)
classification: Not met
--
compound: Cc1cc([C@@H](O)[C@@H](N)c2ccc(Cl)c(Cl)c2)ccc1-c1cncc(F)c1 (racemic)
classification: Not met
--
compound: N[C@@H](c1ccc(Cl)c(Cl)c1)[C@H](O)c1ccc(OC2CCOC2)cn1 (mixture of isomers) [Example 23, dihydrochloride]
classification: Met
--
compound: NC(=O)c1cccc(-c2ccc([C@@H](O)[C@@H](N)c3ccc(Cl)c(Cl)c3)cc2)c1 (racemic)
classification: Met
--
compound: N[C@@H](c1ccc(Cl)c(Cl)c1)[C@H](O)c1ccc(OC2CCOCC2)cn1 (racemic) [Example 25, dihydrochloride]
classification: Not met
--
compound: N[C@@H](c1ccc(Cl)c(Cl)c1)[C@H](O)c1ccc(OC2CCOCC2)cc1F (racemic) [Example 33, hydrochloride]
classification: Met
--
compound: CS(=O)(=O)c1cccc(-c2ccc([C@@H](O)[C@@H](N)c3ccc(Cl)c(Cl)c3)c(F)c2)c1 (single isomer, unassigned) [Example 6, hydrochloride]
classification: Met
--
compound: N[C@@H](c1ccc(Cl)c(F)c1)[C@H](O)c1ccc(-c2cccnc2)cc1 (racemic)
classification: Met
